system tested: Dihydrofolate reductase (Mycobacterium avium, UniProt O30463)
Sequence (O30463 whole entry): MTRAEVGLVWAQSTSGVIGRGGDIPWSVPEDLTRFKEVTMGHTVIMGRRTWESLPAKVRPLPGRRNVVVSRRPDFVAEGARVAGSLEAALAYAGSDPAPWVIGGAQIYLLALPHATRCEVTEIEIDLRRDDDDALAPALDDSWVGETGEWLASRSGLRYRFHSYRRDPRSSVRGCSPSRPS
assay comment: Antimycobacterial activity against Mycobacterium avium complex dihydrofolate reductase (MAC DHFR)
assay readout: pIC50
Note: pIC50 values are expressed as the negative base-10 logarithm of concentration in M.

* Cc1ccc(Cl)cc1NCc1cnc2nc(N)nc(N)c2c1C | 9.10
* Cc1cccc(SCc2cnc3nc(N)nc(N)c3c2C)c1 | 7.80
* CCOc1ccc(NCc2cnc3nc(N)nc(N)c3c2C)cc1OC | 8.96

# input for lookup
Value lookup for pIC50; key = COc1cc(-c2ccccc2)ccc1NCc1cnc2nc(N)nc(N)c2c1C
9.04

====

system tested: Dihydrofolate reductase (Mycobacterium avium, UniProt O30463)
assay comment: Antimycobacterial activity against Mycobacterium avium complex dihydrofolate reductase (MAC DHFR)
assay readout: IC50 (nM)
Give the value, in units of nM, as a plain number.

Recorded results for 5 compounds are shown here.
- COc1ccc(C)c(NCc2cnc3nc(N)nc(N)c3c2C)c1: 0.4
- COc1cc(NCc2cnc3nc(N)nc(N)c3c2C)cc(C(F)(F)F)c1: 0.93
- Cc1c(CNc2ccc3ncccc3c2)cnc2nc(N)nc(N)c12: 0.95
- Cc1c(CSc2ccc(Cl)cc2)cnc2nc(N)nc(N)c12: 3.6
- COc1cc(OC)cc(N(C)Cc2cnc3nc(N)nc(N)c3c2C)c1: 0.73

# input for lookup
Value lookup for IC50; key = Cc1c(CNc2ccc3ccccc3c2)cnc2nc(N)nc(N)c12
0.76

====

system tested: Dihydrofolate reductase (Mycobacterium avium, UniProt O30463)
Sequence (O30463 whole entry): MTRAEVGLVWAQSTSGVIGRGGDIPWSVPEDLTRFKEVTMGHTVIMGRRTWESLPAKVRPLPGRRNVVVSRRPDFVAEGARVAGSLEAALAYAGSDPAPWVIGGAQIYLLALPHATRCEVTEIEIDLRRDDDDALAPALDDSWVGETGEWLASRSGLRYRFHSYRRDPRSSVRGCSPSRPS
assay comment: Antimycobacterial activity against Mycobacterium avium complex dihydrofolate reductase (MAC DHFR)
assay readout: log10 of IC50 (log10 of the value in nM)
In plain terms, each number is the log10 of measured IC50 in nM.

Recorded results for 3 molecules are shown here.
- COc1cc(NCc2cnc3nc(N)nc(N)c3c2C)cc(OC)c1: 1.30
- COc1ccc(C)cc1NCc1cnc2nc(N)nc(N)c2c1C: -0.07
- Cc1c(CNc2cc(C(F)(F)F)ccc2Br)cnc2nc(N)nc(N)c12: -0.09

Value lookup for log10 of IC50; key = Cc1ccc(F)cc1NCc1cnc2nc(N)nc(N)c2c1C
-0.07

Value lookup for log10 of IC50; key = Cc1c(CNc2cc(Br)ccc2Br)cnc2nc(N)nc(N)c12
-0.15

Value lookup for log10 of IC50; key = COc1ccc(OC)c(NCc2cnc3nc(N)nc(N)c3c2C)c1
0.04

====

Recorded IC50 values for a group of compounds are listed next.
system tested: Dihydrofolate reductase (Homo sapiens, UniProt P00374)
Sequence (P00374 whole entry): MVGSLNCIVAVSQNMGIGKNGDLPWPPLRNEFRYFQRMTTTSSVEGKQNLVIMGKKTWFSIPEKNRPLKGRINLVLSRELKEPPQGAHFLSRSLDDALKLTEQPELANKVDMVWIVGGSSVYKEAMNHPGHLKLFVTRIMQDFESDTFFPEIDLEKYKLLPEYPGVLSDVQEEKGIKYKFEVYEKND
assay comment: Antimycobacterial activity against human dihydrofolate reductase (hDHFR)
Give the value, in units of nM, as a plain number.

Recorded results for 5 compounds are shown here.
- COc1ccc(C)c(NCc2cnc3nc(N)nc(N)c3c2C)c1: 150
- COc1cc(NCc2cnc3nc(N)nc(N)c3c2)cc(OC)c1OC: 3900
- Cc1c(CSc2cccc(Cl)c2)cnc2nc(N)nc(N)c12: 420
- Cc1ccc(NCc2cnc3nc(N)nc(N)c3c2C)cc1Cl: 6.7
- Cc1c(CNC2CCCc3ccccc32)cnc2nc(N)nc(N)c12 (stereo unspecified): 3400

# input for lookup
Value lookup for IC50; key = CCc1c(CNc2cc(C)ccc2OC)cnc2nc(N)nc(N)c12
370

====

system tested: Dihydrofolate reductase (Homo sapiens)
Sequence (P00374 whole entry): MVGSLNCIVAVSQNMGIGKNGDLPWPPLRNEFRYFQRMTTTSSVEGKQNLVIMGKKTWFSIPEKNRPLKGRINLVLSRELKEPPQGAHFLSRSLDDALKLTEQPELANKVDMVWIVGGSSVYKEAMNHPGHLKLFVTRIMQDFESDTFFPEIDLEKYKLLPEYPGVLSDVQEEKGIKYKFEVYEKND
assay comment: Antimycobacterial activity against human dihydrofolate reductase (hDHFR)
Recorded IC50 values for a group of compounds are listed next.
Give the value, in units of nM, as a plain number.

Recorded results for 5 compounds are shown here.
- COc1ccc(C(F)(F)F)cc1N(C)Cc1cnc2nc(N)nc(N)c2c1C: 36
- Cc1c(Cl)cccc1NCc1cnc2nc(N)nc(N)c2c1C: 5.2
- COc1ccc(OC)c(NCc2cnc3nc(N)nc(N)c3c2C)c1: 1000
- Cc1c(CSc2cccc3ccccc23)cnc2nc(N)nc(N)c12: 440
- Cc1c(CNc2cc(Cl)ccc2Cl)cnc2nc(N)nc(N)c12: 8

Value lookup for IC50; key = Cc1cc(NCc2cnc3nc(N)nc(N)c3c2C)c(Cl)cc1F
33

====

system tested: Dihydrofolate reductase (Mycobacterium avium)
assay comment: Antimycobacterial activity against Mycobacterium avium complex dihydrofolate reductase (MAC DHFR)
Recorded IC50 values for a group of compounds are listed next.
Give the value, in units of nM, as a plain number.

* Cc1cc(NCc2cnc3nc(N)nc(N)c3c2C)c(Cl)cc1F | 0.78
* Cc1cc(C)c(NCc2cnc3nc(N)nc(N)c3c2C)c(Cl)c1 | 3.8
* Cc1c(CNc2c3ccccc3cc3ccccc23)cnc2nc(N)nc(N)c12 | 620

Value lookup for IC50; key = Cc1c(Cl)cccc1NCc1cnc2nc(N)nc(N)c2c1C
0.82

Value lookup for IC50; key = Cc1c(CNc2ccc(Cl)c3ccccc23)cnc2nc(N)nc(N)c12
0.43

Value lookup for IC50; key = Cc1c(CNC2CCCc3ccccc32)cnc2nc(N)nc(N)c12 (configuration not stated)
280

Value lookup for IC50; key = Cc1c(CNc2ccc3c4c(cccc24)-c2ccccc2-3)cnc2nc(N)nc(N)c12
1

Value lookup for IC50; key = Cc1c(CSc2cccc3ccccc23)cnc2nc(N)nc(N)c12
4.6

Value lookup for IC50; key = COc1ccc(SCc2cnc3nc(N)nc(N)c3c2C)cc1OC
1.5

Value lookup for IC50; key = Cc1c(CNc2cc(C(F)(F)F)ccc2F)cnc2nc(N)nc(N)c12
0.86

Value lookup for IC50; key = Cc1c(CNc2ccc(Cl)cc2)cnc2nc(N)nc(N)c12
0.84

Value lookup for IC50; key = Cc1c(CNC2c3ccccc3-c3ccccc32)cnc2nc(N)nc(N)c12
320

====

system tested: Dihydrofolate reductase (Homo sapiens)
pIC50: −log10 of the molar value.
assay readout: pIC50

Value lookup for pIC50; key = Cc1c(CNc2cccc3ccccc23)cnc2nc(N)nc(N)c12
> 7.00

====

system tested: UniProt:O30463
assay comment: Antimycobacterial activity against Mycobacterium avium complex dihydrofolate reductase (MAC DHFR)
Recorded log10 IC50 values for a group of compounds are listed next.
In plain terms, each number is the log10 of measured IC50 in nM.

• Nc1nc(N)c2cc(CNc3ccc(Cl)cc3)cnc2n1 = 1.86
• Cc1c(CNc2cc(Cl)ccc2Cl)cnc2nc(N)nc(N)c12 = -0.05
• COc1cc(Cl)c(C)cc1NCc1cnc2nc(N)nc(N)c2c1C = -0.03
• CCc1c(CNc2cc(C)ccc2OC)cnc2nc(N)nc(N)c12 = 0.49
• Cc1c(CNc2cccc3c2CCCC3)cnc2nc(N)nc(N)c12 = -0.03
• Cc1c(CNc2ccc3ccc4cccc5ccc2c3c45)cnc2nc(N)nc(N)c12 = -0.06
• COc1cc(NCc2cnc3nc(N)nc(N)c3c2)cc(OC)c1OC = 2.38
• Cc1c(CNc2ccc(Cl)c(Cl)c2)cnc2nc(N)nc(N)c12 = -0.04
• COCc1c(CNc2cc(OC)ccc2OC)cnc2nc(N)nc(N)c12 = 3.38
• Cc1ccc(NCc2cnc3nc(N)nc(N)c3c2C)cc1Br = -0.22

Report log10 IC50 for Cc1c(CNc2cccc3ccccc23)cnc2nc(N)nc(N)c12 tested on UniProt:O30463.
-0.09
